Source of measurements: the supplement of paper PMC3545927

Target: furin, P09958;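 also: purified furin at 1:10 enzyme:substrate in 50 mM HEPES pH 7.5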
Sequence (P09958 whole entry): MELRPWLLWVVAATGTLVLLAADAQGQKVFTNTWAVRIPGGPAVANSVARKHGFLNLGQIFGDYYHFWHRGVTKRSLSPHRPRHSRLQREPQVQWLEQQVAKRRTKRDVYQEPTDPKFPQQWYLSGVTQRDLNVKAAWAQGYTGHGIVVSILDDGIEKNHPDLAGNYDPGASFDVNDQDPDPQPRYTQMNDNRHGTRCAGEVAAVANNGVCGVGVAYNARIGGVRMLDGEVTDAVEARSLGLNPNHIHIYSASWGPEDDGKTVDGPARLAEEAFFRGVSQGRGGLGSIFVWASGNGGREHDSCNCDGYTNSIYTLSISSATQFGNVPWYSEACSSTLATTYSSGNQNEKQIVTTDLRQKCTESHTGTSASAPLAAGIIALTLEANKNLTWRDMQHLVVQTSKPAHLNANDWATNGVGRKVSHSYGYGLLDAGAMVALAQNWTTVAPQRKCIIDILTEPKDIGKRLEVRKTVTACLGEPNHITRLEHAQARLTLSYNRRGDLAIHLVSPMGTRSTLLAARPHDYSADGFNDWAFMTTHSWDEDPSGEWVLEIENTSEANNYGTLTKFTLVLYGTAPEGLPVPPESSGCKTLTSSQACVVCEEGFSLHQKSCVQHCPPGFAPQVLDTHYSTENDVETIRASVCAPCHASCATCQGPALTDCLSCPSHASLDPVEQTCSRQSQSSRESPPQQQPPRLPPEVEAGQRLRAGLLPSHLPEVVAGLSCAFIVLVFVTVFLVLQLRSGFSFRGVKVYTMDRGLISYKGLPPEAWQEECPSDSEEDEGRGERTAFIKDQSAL
Assay: furin cleavage Z-score vs untreated control; higher = more cleavage, active = 3.5 or more, inactive = 1 or less, 8 variable residues between constant flanks
Details: 15 min
This is one part of the list. How many sequences the whole screen found active is unknown.
Attribute: furin cleavage Z-score
value-kind: furin cleavage Z-score

1) CAGLKRGGAKAGNASASA [DV6] = 0.513
2) CARTKRDYDFAGNASASA [FS-2313] = 7.94
3) CARDDRSTSFAGNASASA [FS-1689] = -0.677
4) CARTKRSAFFAGNASASA [FS-2190] = 8.86
